Data provenance: PubChem BioAssay AID485317

Listed here are molecules together with their documented inhibition.
- assayed_target: FAD-linked sulfhydryl oxidase ALR (Homo sapiens) (UniProt P55789)
- Sequence (P55789 whole entry, looked up): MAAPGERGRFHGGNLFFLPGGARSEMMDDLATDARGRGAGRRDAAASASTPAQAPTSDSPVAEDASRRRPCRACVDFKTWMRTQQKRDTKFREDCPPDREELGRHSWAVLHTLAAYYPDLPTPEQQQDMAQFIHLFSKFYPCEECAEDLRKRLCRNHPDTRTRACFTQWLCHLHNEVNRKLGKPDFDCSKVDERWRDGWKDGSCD
- experimental_details: ALR-catalysed DTT oxidation blockers – biochemical, H2O2 detection, HRP-luminol luminescence, single point, primary screen (AID 485317)
- cond: purified ALR, active compounds read high, concentration not given here
The whole screen tested about 290,000 compounds, of which about 11,000 (3.8%) were called active. The list comes from a sample in which actives are over-represented; it also holds close analogues and randomly drawn compounds.
Write the value in % as a bare number.

Sample records with inhibition:
COc1ccccc1C(CNC(=O)c1cccc(S(=O)(=O)Nc2ccc(F)cc2)c1)N(C)C (stereo not drawn) : -11.3
O=C(/C=C/Sc1ncn[nH]1)c1ccc(Cl)cc1 : 98.6
OC(CN1C2=NCCCN2c2ccccc21)c1ccc(Br)cc1 (stereo not drawn) : 9.53

[ask] Could you tell me which inhibition is on file for Oc1ccc(N=Cc2c(O)ccc3ccccc23)cc1 ?
[reply] 99.5

[ask] I have this molecule here, O=C(CN1CCCC1)N1CCN(c2ccccc2)CC1 , and I need its recorded inhibition.
[reply] 23.5

[ask] # lookup: inhibition of CC(C#N)OC(=O)c1cccnc1SCC(=O)Nc1ccc2c(c1)OCO2 (stereo not drawn)
[reply] -10.2

[ask] So what's the measured inhibition for this one? CC(C)Cn1c(N)c(C(=O)COC(=O)C2CCCN2C(=O)c2cccs2)c(=O)n(C)c1=O (stereo not drawn)
[reply] -23.1

[ask] Return reported inhibition; argument: COc1ccc(NC(=O)CN(C)C(=O)c2cc(-c3ccc(C)o3)nc3ccccc23)cc1
[reply] -3.77
